compounds and their reported Fibrin % cell toxicity
test system: primary rat microglia; assay: Cell toxicity (dead cells, size <150 μm2) in coated fibrin (cFib) assay; conditions: primary microglia HTS, fibrin stimulation, cell size <150 μm2 as marker of toxicity;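 note: share of dead cells sized under 150 µm2 at 10 µM in fibrin-stimulated microglia HTS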
Where a SMILES comes first, the peptide text is derived from it. [ ]: non-standard residue; d: D form. pGlu = O=C1CC[C@@H](C(=O)O)N1; Thz = O=C(O)[C@@H]1CSCN1
measured.property: Fibrin % cell toxicity (%)

compound: O=C1CC[C@@H](C(=O)N2CSC[C@H]2C(=O)O)N1 [Pidotimod] ([pGlu]-[Thz]-OH)
measured.property: Fibrin % cell toxicity
value.unit: %
reported.measurement: 1
--
compound: O=C(Oc1ccccc1C(=O)O)c1ccccc1O [Salsalate]
measured.property: Fibrin % cell toxicity
value.unit: %
reported.measurement: 1
--
compound: O=C(Nc1ccccc1)c1ccccc1O [Salicylanilide]
measured.property: Fibrin % cell toxicity
value.unit: %
reported.measurement: 1
--
compound: N#C[C@@H]1C[C@@H]2C[C@@H]2N1C(=O)[C@@H](N)C12CC3CC(CC(O)(C3)C1)C2
measured.property: Fibrin % cell toxicity
value.unit: %
reported.measurement: 1
--
compound: OC1(c2ccc(Cl)c(C(F)(F)F)c2)CCN(CCCC(c2ccc(F)cc2)c2ccc(F)cc2)CC1
measured.property: Fibrin % cell toxicity
value.unit: %
reported.measurement: 1
--
compound: Nc1ccc(/N=N/c2ccccc2)c(N)n1
measured.property: Fibrin % cell toxicity
value.unit: %
reported.measurement: 0
--
compound: NC(=O)c1cnccn1 [Pyrazinamide]
measured.property: Fibrin % cell toxicity
value.unit: %
reported.measurement: 0
--
compound: Cc1c(NC(C)C)c(=O)n(-c2ccccc2)n1C
measured.property: Fibrin % cell toxicity
value.unit: %
reported.measurement: 0
--
compound: Cc1cc(CC(C)CC(C)(C)C)n(O)c(=O)c1.NCCO (stereo not shown)
measured.property: Fibrin % cell toxicity
value.unit: %
reported.measurement: 1
--
compound: CC(N)C12CC3CC(CC(C3)C1)C2 (stereo not shown)
measured.property: Fibrin % cell toxicity
value.unit: %
reported.measurement: 0
